Biological target: A2BAR (Homo sapiens, UniProt P29275)
Construct: Gs-coupled A2BARs endogenously expressed in HEK293 cells; host or cells: HEK293G (HEK293 stably expressing the GloSensor 20F cAMP biosensor)
Sequence (P29275 1-332): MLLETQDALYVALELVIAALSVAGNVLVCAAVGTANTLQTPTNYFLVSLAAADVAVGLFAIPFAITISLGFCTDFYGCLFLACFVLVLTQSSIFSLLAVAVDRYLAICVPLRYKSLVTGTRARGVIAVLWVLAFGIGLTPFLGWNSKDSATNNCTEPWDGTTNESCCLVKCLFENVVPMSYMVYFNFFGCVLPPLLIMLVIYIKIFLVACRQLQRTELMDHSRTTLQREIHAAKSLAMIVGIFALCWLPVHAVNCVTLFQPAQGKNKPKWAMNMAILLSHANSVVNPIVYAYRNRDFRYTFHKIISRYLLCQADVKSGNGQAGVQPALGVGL
Assay: GloSensor cAMP luminescence assay in HEK293G cells, endogenous A2BAR-mediated responses (NECA, adenosine, BAY 60-6583)
Type: cell-based
Settings: antagonism of BAY 60-6583 (1 µM) response, 30 min pre-incubation, HEK293G
measurement.label: IC50 (nM)
Entry rule: numbers only, all in nM.

Inquiry: Record request: IC50 value, item CCCn1c(=O)[nH]c2nc(-c3ccc(S(=O)(=O)N4CCN(c5ccc(Cl)cc5)CC4)cc3)[nH]c2c1=O
Reply text: 17.4

----------
Target: A2BAR (Homo sapiens)
Construct: Gs-coupled A2BARs endogenously expressed in HEK293 cells; host or cells: HEK293G (HEK293 stably expressing the GloSensor 20F cAMP biosensor)
Test: GloSensor cAMP luminescence assay in HEK293G cells, endogenous A2BAR-mediated responses (NECA, adenosine, BAY 60-6583)
Format: cell-based
Conditions: antagonism of NECA (10 µM) response, 30 min pre-incubation, HEK293G
Method: The cAMP GloSensor™ (20F) biosensor [26] expressed in HEK293 (HEK293G) cells was obtained from Promega (Madison, WI). HEK293G cells were maintained in Dulbecco modified eagles medium (DMEM) supplemented with 2 mM L-glutamine, 10% FCS (fetal calf serum) and 200 μg/ml hygromycin B at 37 °C 5% CO2. […]
measurement.label: IC50 (nM)
Entry rule: numbers only, all in nM.

Inquiry: Record request: IC50 value, item CCCn1c(=O)[nH]c2nc(-c3ccc(S(=O)(=O)N4CCN(c5ccc(Cl)cc5)CC4)cc3)[nH]c2c1=O
Reply text: 49.8

----------
Biological target: A2BAR (Homo sapiens, UniProt P29275)
Construct: Gs-coupled A2BARs endogenously expressed in HEK293 cells; host or cells: HEK293G (HEK293 stably expressing the GloSensor 20F cAMP biosensor)
Experiment: GloSensor cAMP luminescence assay in HEK293G cells, endogenous A2BAR-mediated responses (NECA, adenosine, BAY 60-6583)
Type: cell-based
Details: BAY 60-6583 pEC50, PSB 603 100 nM
Procedure: The cAMP GloSensor™ (20F) biosensor [26] expressed in HEK293 (HEK293G) cells was obtained from Promega (Madison, WI). HEK293G cells were maintained in Dulbecco modified eagles medium (DMEM) supplemented with 2 mM L-glutamine, 10% FCS (fetal calf serum) and 200 μg/ml hygromycin B at 37 °C 5% CO2. […]
measurement.label: pEC50
Keep in mind that pEC50 stands for -log10 of concentration in molar terms.

Inquiry: Record request: pEC50 value, item N#Cc1c(N)nc(SCC(N)=O)c(C#N)c1-c1ccc(OCC2CC2)cc1 [BAY 60-6583]
Reply text: 5.34

----------
Target: A2BAR (Homo sapiens, UniProt P29275)
Construct: Gs-coupled A2BARs endogenously expressed in HEK293 cells; host or cells: HEK293G (HEK293 stably expressing the GloSensor 20F cAMP biosensor)
Sequence (P29275 1-332): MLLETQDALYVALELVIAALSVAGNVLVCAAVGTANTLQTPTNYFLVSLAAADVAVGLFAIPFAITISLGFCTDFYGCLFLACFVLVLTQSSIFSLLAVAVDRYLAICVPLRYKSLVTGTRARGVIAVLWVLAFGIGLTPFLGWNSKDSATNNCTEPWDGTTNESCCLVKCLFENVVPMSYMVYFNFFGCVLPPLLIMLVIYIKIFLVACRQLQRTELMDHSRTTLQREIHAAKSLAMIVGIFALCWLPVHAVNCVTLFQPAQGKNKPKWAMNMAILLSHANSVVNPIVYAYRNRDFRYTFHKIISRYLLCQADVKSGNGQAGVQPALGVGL
Assay: GloSensor cAMP luminescence assay in HEK293G cells, endogenous A2BAR-mediated responses (NECA, adenosine, BAY 60-6583)
Type: cell-based
Conditions: BAY 60-6583 pEC50, XAC 1000 nM
Description: The cAMP GloSensor™ (20F) biosensor [26] expressed in HEK293 (HEK293G) cells was obtained from Promega (Madison, WI). HEK293G cells were maintained in Dulbecco modified eagles medium (DMEM) supplemented with 2 mM L-glutamine, 10% FCS (fetal calf serum) and 200 μg/ml hygromycin B at 37 °C 5% CO2. […]
measurement.label: EC50 (µM)
Entry rule: numbers only, all in µM.

Inquiry: Record request: EC50 value, item N#Cc1c(N)nc(SCC(N)=O)c(C#N)c1-c1ccc(OCC2CC2)cc1
Reply text: 9.33

----------
target: A2BAR (Homo sapiens, UniProt P29275); construct: Gs-coupled A2BARs endogenously expressed in HEK293 cells; host or cells: HEK293G (HEK293 stably expressing the GloSensor 20F cAMP biosensor); experiment: GloSensor cAMP luminescence assay in HEK293G cells, endogenous A2BAR-mediated responses (NECA, adenosine, BAY 60-6583); assay type: cell-based; settings: BAY 60-6583 pEC50, ZM 241385 100 nM
measurement.label: pEC50
Keep in mind that pEC50 stands for -log10 of concentration in molar terms.

Inquiry: Form field: pEC50 recorded for N#Cc1c(N)nc(SCC(N)=O)c(C#N)c1-c1ccc(OCC2CC2)cc1 [BAY 60-6583] with A2BAR (Homo sapiens, UniProt P29275) (enter value)
Reply text: 5.85
